Hello, the source for this data is patent EP4796551A1, in case you need it.

- test method notes: Particle size, PDI and ζ-potential of mRNA-LNP (Zetasizer Nano ZS)
- Format: physicochemical
- condition: Table 1; mRNA-LNP formulation phospholipid:CL4F6:Chol:PEG-DMG 10:50:40:1.0, Fluc mRNA
- Protocol: Ethanol solutions containing each phospholipid, CL4F6, Chol, and PEG2000-dimirystoylglycerol (PEG-DMG) at the molar ratio of 10:50:40:1.0 were prepared at the total lipid concentration of 16 mM. […] The ζ-average particle size, polydispersity index (PDI), and ζ-potential of the LNPs were measured by means of a Zetasizer Nano ZS ZEN3600 instrument (Malvern Instruments). The encapsulation efficiency and total concentration of mRNA were measured by a Ribogreen assay according to a conventional method.
quantity kind: ζ-potential (mV)

Use the examples below as a reference point.
compound: CCCCCCCC/C=C\CCCCCCCCOC(=O)CCNCCOP(=O)(O)OC[C@@H](COC(=O)CCCCCCC/C=C\CCCCCCCC)OC(=O)CCCCCCC/C=C\CCCCCCCC
quantity kind: ζ-potential (mV)
number: -2.9
--
compound: CCCCCCCC/C=C\CCCCCCCC(=O)OC[C@H](COP(=O)(O)OCCNCCC(=O)OCCCCCC)OC(=O)CCCCCCC/C=C\CCCCCCCC
quantity kind: ζ-potential (mV)
number: -1.4
--
compound: CCCCCCCCCCCCCCCCCC(=O)OC[C@H](COP(=O)([O-])OCC[N+](C)(C)C)OC(=O)CCCCCCCCCCCCCCCCC [DSPC, reference compound]
quantity kind: ζ-potential (mV)
number: -3.6

(a) CCCCCCCC/C=C\CCCCCCCC(=O)OC[C@H](COP(=O)(O)OCCNCCC(=O)OCCCCCCCCCC)OC(=O)CCCCCCC/C=C\CCCCCCCC
(b) CCCCCCCC/C=C\CCCCCCCC(=O)OC[C@H](COP(=O)(O)OCCN)OC(=O)CCCCCCC/C=C\CCCCCCCC [DOPE, reference compound]
Request: Hi! Which is lower in terms of ζ-potential (mV), the first one a or the second one b ? Please reply using the label of the selected record.
Result: a
